Molecular target: γ-secretase (Homo sapiens, UniProt P49768)
Assay: cell-free γ-secretase assay using detergent-solubilized membranes from HeLa cells and a recombinant APP-based substrate
Type: biochemical
Parameters: detergent-solubilized membranes from HeLa cells; endogenous in cells; host or cells: HeLa cells (detergent-solubilized membranes)
Conditions: 50% inhibition of Aβ40 production; at least three independent experiments; read-out: Cell-free Assay IC50
Non-standard residues stand in square brackets, D forms with d. Residues, ends and D or L forms follow the SMILES beside them. *: point of attachment. Boc = CC(C)(C)OC(=O)*; Aib = CC(C)(N)C(=O)O; Bn = c1ccc(C*)cc1
Recorded IC50 by entry
I only need the number, in µM, no unit after it.

CC[C@H](C)[C@H](NC(=O)[C@@H](NC(=O)[C@@H](NC(=O)C(C)(C)NC(=O)CNC(=O)[C@@H](NC(=O)C(C)(C)NC(=O)[C@H](CC(C)C)NC(=O)CNC(=O)OC(C)(C)C)C(C)C)C(C)C)C(C)C)C(=O)NC(C)(C)C(=O)N[C@H](C(=O)N[C@H](C(=O)NC(C)(C)C(=O)N[C@H](C(=O)N[C@H](C(=O)NC(C)(C)C(=O)OC)[C@@H](C)CC)C(C)C)C(C)C)[C@@H](C)OCc1ccccc1 [SEQ ID NO:21 L-peptide] (Boc-GL[Aib]VG[Aib]VVI[Aib]T(Bn)V[Aib]VI[Aib]-OMe)    11

Consider the record given below.
Task: Tell me its IC50 on γ-secretase (Homo sapiens, UniProt P49768): CC[C@H](C)[C@H](NC(=O)[C@@H](NC(=O)[C@@H](NC(=O)C(C)(C)NC(=O)CNC(=O)[C@@H](NC(=O)OC(C)(C)C)C(C)C)C(C)C)C(C)C)C(=O)NC(C)(C)C(=O)N[C@H](C(=O)N[C@H](C(=O)NC(C)(C)C(=O)N[C@H](C(=O)N[C@H](C(=O)NC(C)(C)C(=O)OC)[C@@H](C)CC)C(C)C)C(C)C)[C@@H](C)OCc1ccccc1 [SEQ ID NO:18 L-peptide] (Boc-VG[Aib]VVI[Aib]T(Bn)V[Aib]VI[Aib]-OMe)
Output: 0.78
